Values from paper PMC9736855

target: FLT1 (Homo sapiens, UniProt P17948); construct: purchased in-house DSF panel (SGC Frankfurt); experiment: DSF; assay type: binding
Sequence (P17948 801-1158): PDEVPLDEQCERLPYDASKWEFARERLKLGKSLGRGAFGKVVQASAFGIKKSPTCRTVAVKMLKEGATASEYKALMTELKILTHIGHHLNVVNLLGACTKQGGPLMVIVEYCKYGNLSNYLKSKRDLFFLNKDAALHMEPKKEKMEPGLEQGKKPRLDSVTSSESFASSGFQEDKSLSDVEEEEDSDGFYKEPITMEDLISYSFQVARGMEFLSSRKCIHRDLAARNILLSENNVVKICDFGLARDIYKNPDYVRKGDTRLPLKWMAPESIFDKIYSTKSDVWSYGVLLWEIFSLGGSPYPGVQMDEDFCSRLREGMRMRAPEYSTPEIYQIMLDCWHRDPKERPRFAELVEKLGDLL

# compound, ΔTm FLT1 / °C
rows = [
    ("CC(C)(C)OC(=O)Nc1ccc(CNc2nccc(Nc3cc(C(=O)OC(C)(C)C)[nH]n3)n2)cc1 [43d]", 0.9),
    ("COC(=O)c1cc(Nc2ccnc(NCCOCCNC(=O)OC(C)(C)C)n2)[nH]n1 [21d]", 2.0),
    ("CN[C@@H]1C[C@H]2O[C@@](C)([C@@H]1OC)n1c3ccccc3c3c4c(c5c6ccccc6n2c5c31)C(=O)NC4 [staurosporine, reference compound]", 13.6),
    ("COC(=O)c1cc(Nc2ccnc(NCc3ccc(NC(=O)OC(C)(C)C)cc3)n2)[nH]n1 [21i]", 2.2),
    ("N#CCc1ccc(Nc2nccc(Nc3cc(C4CC4)[nH]n3)n2)cc1 [compound 1, reference compound]", 10.6),
    ("CC(C)OC(=O)c1cc(Nc2ccnc(NCc3ccc(NC(=O)OC(C)(C)C)cc3)n2)n[nH]1 [42d]", 0.6),
]

###

target: CDK15/Cyclin Y (Homo sapiens); construct: Full-length kinases were obtained as plasmids cloned in frame with a terminal NanoLuc-fusion; CS1810C178 (CCNY); assay: NanoBRET; settings: read-out: NanoBRET EC50 ± SEM CDK15/Cyclin Y
Sequence (Q96Q40 whole entry, the tested form may be a part): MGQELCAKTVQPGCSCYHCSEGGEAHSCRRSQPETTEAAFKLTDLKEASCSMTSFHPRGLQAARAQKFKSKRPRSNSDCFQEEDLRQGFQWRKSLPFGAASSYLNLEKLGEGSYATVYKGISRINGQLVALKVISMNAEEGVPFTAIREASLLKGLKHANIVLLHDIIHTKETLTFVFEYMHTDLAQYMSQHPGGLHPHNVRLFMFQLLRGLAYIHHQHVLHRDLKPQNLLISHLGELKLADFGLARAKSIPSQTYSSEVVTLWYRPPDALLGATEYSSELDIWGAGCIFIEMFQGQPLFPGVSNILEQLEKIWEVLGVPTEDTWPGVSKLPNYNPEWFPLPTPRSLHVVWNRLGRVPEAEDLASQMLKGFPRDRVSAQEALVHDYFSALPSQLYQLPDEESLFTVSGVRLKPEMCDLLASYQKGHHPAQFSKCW
Sequence (Q8ND76 2-341 partner limits assumed): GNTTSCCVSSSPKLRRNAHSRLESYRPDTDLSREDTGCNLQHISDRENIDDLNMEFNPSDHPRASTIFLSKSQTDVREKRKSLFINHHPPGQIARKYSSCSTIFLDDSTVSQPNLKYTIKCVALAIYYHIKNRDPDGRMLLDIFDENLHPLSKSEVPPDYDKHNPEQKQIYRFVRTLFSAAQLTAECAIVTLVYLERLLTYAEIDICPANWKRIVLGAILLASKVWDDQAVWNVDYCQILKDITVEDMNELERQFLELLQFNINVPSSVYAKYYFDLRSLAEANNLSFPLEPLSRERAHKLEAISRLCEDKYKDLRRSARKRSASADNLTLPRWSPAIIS
pEC50: −log10 of the molar value.

# molecule, pEC50
data = [
    ("CC(C)(C)OC(=O)Nc1ccc(CNc2nccc(Nc3cc(C(=O)OC(C)(C)C)[nH]n3)n2)cc1 [43d]", 6.52),
    ("CC(C)OC(=O)c1cc(Nc2ccnc(NCc3ccc(NC(=O)OC(C)(C)C)cc3)n2)n[nH]1 [42d]", 6.78),
    ("N#CCc1ccc(Nc2nccc(Nc3cc(C4CC4)[nH]n3)n2)cc1 [compound 1, reference compound]", 7.03),
    ("COC(=O)c1cc(Nc2ccnc(NCc3ccc(NC(=O)OC(C)(C)C)cc3)n2)[nH]n1 [21i]", 5.68),
]

###

Molecular target: CAMK1D (Homo sapiens)
Construct: purchased in-house DSF panel (SGC Frankfurt)
Sequence (Q8IU85 23-279): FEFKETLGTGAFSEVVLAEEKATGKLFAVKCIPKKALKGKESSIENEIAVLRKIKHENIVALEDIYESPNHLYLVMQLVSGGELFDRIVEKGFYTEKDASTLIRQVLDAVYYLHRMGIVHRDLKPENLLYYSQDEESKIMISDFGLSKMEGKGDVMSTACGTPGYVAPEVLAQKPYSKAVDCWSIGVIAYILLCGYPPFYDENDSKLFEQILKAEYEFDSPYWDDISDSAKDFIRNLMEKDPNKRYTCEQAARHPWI
Assay: DSF
Assay type: binding
Protocol: Recombinant protein kinase domains with a concentration of 2 μM were mixed with a 10 μM compound solution in DMSO, 20 mM HEPES, pH 7.5, and 500 mM NaCl. SYPRO Orange (5000×, Invitrogen) was added as a fluorescence probe (1 µl per mL). Subsequently, temperature-dependent protein unfolding profiles were measured, using the QuantStudio™ 5 realtime PCR machine (Thermo Fisher, Waltham, MA, USA). […] The temperature was raised with a step rate of 3 °C per minute. […]
Measured ΔTm CAMK1D values are reported for all entries that follow.

# compound, unit.string, ΔTm CAMK1D
measured = [
    ("N#CCc1ccc(Nc2nccc(Nc3cc(C4CC4)[nH]n3)n2)cc1 [compound 1, reference compound]", "°C", 5.4),
    ("CC(C)(C)OC(=O)Nc1ccc(CNc2nccc(Nc3cc(C(=O)OC(C)(C)C)[nH]n3)n2)cc1 [43d]", "°C", -2.9),
    ("COC(=O)c1cc(Nc2ccnc(NCCOCCNC(=O)OC(C)(C)C)n2)[nH]n1 [21d]", "°C", 1.4),
    ("CC(C)OC(=O)c1cc(Nc2ccnc(NCc3ccc(NC(=O)OC(C)(C)C)cc3)n2)n[nH]1 [42d]", "°C", -2.4),
    ("COC(=O)c1cc(Nc2ccnc(NCc3ccc(NC(=O)OC(C)(C)C)cc3)n2)[nH]n1 [21i]", "°C", -0.5),
]
